Target: human norepinephrine transporter (NET) (Homo sapiens (Human), UniProt P23975)
Sequence (P23975 whole entry): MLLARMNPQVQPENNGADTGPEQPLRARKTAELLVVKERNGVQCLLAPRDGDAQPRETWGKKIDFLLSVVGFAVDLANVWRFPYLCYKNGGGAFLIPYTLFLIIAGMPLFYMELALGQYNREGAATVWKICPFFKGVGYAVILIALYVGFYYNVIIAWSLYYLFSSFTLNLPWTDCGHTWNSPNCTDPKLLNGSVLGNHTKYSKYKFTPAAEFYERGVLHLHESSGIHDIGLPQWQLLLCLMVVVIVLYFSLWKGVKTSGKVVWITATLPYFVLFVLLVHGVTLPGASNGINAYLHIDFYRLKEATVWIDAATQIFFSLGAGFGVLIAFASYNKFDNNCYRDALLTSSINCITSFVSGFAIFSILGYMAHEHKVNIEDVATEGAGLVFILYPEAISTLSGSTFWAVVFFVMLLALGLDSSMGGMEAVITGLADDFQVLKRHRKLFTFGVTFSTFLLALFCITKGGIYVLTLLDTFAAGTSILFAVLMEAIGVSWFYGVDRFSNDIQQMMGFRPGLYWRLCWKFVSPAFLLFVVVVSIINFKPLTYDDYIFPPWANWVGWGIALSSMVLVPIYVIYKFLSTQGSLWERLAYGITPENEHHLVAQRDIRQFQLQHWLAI
Experiment: Binding assay to human norepinephrine transporter (NET) ([3H]-Nisoxetin)
Details: Table 2, dual compounds, human NET enriched membranes, read-out: Ki (nM) NET Hum
Procedure: Binding Assay to Human Norepinephrine Transporter (NET). Human norepinephrine transporter (NET) enriched membranes (5 μg) were incubated with 5 nM of radiolabeled [3H]-Nisoxetin in assay buffer containing 50 mM Tris-HCl, 120 mM NaCl, 5 mM KCl, pH 7.4. NSB (non specific binding) was measured by adding desipramine 10 μM. The binding of the test compound was measured at five different concentrations. […] Readings were performed in a Trilux 1450 Microbeta radioactive counter (Perkin Elmer).
Below, each entry is listed with its recorded Ki.
measurement-label: Ki

>>> result("CNCCC(Oc1cccc2ncccc12)c1cccs1 (stereo not drawn)")
"100 to 500 nM"
>>> result("CNCC[C@@H](Oc1cccc2cnccc12)c1sccc1F")
"100 to 500 nM"
>>> result("CNCCC(Oc1cccc2cnccc12)c1ccsc1 (stereo not drawn)")
"< 100 nM"
>>> result("CNCCC(Oc1ccc2ccncc2c1)c1cccs1 (stereo not drawn)")
"100 to 500 nM"
>>> result("CNCC[C@@H](Oc1cccc2cnccc12)c1ccc(F)s1")
"100 to 500 nM"
>>> result("CNCC[C@@H](Oc1cccc2ccncc12)c1ccsc1")
"100 to 500 nM"

* * *

Target: human α2δ-1 subunit of Cav2.2 calcium channel (Homo sapiens (Human), UniProt P54289)
Sequence (P54289 25-1103): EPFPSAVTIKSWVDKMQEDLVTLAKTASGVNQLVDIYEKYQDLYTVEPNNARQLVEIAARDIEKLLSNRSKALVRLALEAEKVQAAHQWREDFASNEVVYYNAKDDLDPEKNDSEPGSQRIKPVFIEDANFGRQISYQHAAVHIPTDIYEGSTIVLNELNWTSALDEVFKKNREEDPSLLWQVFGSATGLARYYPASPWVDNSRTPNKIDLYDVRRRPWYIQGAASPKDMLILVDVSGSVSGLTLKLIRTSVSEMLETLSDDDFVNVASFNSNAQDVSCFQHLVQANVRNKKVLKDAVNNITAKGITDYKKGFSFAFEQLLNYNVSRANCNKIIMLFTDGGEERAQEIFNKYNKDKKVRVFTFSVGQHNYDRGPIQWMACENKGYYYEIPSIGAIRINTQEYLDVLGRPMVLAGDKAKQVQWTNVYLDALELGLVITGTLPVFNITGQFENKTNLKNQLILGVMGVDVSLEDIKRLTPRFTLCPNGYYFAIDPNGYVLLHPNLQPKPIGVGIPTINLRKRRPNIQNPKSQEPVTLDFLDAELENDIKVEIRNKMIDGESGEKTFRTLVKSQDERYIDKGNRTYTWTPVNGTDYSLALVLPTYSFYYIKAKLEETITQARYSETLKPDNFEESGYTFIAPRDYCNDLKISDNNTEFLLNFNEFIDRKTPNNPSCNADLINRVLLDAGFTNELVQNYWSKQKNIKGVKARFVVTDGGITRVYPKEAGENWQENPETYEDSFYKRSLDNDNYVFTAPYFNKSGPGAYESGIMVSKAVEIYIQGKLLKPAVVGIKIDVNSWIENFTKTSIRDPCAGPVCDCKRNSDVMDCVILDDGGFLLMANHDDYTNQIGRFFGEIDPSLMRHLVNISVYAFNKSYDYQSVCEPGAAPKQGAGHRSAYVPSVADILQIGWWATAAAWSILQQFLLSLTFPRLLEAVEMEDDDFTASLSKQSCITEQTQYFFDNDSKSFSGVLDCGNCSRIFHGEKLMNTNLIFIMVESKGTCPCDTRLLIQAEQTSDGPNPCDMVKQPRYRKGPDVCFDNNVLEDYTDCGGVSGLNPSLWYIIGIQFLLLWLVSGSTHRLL
Assay: Binding assay to human α2δ-1 subunit of Cav2.2 calcium channel ([3H]-Gabapentin)
Details: Table 2, dual compounds, human α2δ-1 enriched membranes, read-out: Ki (nM) alpha2delta Hum
measurement-label: Ki

>>> result("CNCCC(Oc1cccc2cccnc12)c1cccs1 (stereo not shown)")
"≥ 3000 nM"
>>> result("CNCC[C@@H](Oc1cccc2ccncc12)c1ccsc1")
"100 to 500 nM"
>>> result("CNCCC(Oc1cccc2cnccc12)c1sccc1F (stereo not shown)")
"100 to 500 nM"
>>> result("CNCCC(Oc1cccc2cnccc12)c1ccncc1 (stereo not shown)")
"≥ 3000 nM"
>>> result("CNCCC(Oc1cccc2ncccc12)c1sccc1F (stereo not shown)")
"100 to 500 nM"
>>> result("CNCC[C@H](Oc1cccc2ncccc12)c1cccs1")
"< 100 nM"
>>> result("CNCC[C@@H](Oc1cccc2ncccc12)c1cccs1")
"100 to 500 nM"
>>> result("CNCCC(Oc1cccc2ccncc12)c1sccc1F (stereo not shown)")
"100 to 500 nM"
>>> result("CNCCC(Oc1cccc2ccncc12)c1cc(C(F)(F)F)ccn1 (stereo not shown)")
"≥ 3000 nM"
>>> result("CNCC[C@H](Oc1cccc2cnccc12)c1cccs1")
"≥ 3000 nM"

* * *

Target: human α2δ-1 subunit of Cav2.2 calcium channel (Homo sapiens (Human))
Test: Binding assay to human α2δ-1 subunit of Cav2.2 calcium channel ([3H]-Gabapentin)
Conditions: Table 1, human α2δ-1 enriched membranes, read-out: Ki (nM) alpha2delta Hum
Below, each entry is listed with its recorded Ki.
measurement-label: Ki

>>> result("CNCC[C@@H](Oc1cccc2cnccc12)c1cccs1")
"100 to 500 nM"
>>> result("CNCCC(Oc1cccc2cnccc12)C1CCOCC1 (stereo not shown)")
"≥ 3000 nM"
>>> result("CNCC[C@@H](Oc1cccc2ncccc12)c1cccs1")
"100 to 500 nM"
>>> result("CNCCC(Oc1cccc2cnccc12)c1ccc(F)s1 (stereo not shown)")
"< 100 nM"
>>> result("NCCC(Oc1cccc2cnccc12)c1cccs1 (stereo not shown)")
"≥ 3000 nM"
>>> result("CNCCC(Oc1cccc2cnccc12)c1cccc(C(F)(F)F)n1 (stereo not shown)")
"≥ 3000 nM"
>>> result("CNCCC(Oc1cccc2ncccc12)c1cc(C(F)(F)F)ccn1 (stereo not shown)")
"≥ 3000 nM"
>>> result("CNCCC(Oc1cccc2cnccc12)c1ccsc1 (stereo not shown)")
"100 to 500 nM"
>>> result("CNCCC(Oc1ccnc2ccccc12)c1cccs1 (stereo not shown)")
"≥ 3000 nM"
>>> result("CNCC[C@H](Oc1cccc2ncccc12)c1sccc1F")
"500 to 3000 nM"
